Measured on: A*0206 (Homo sapiens, UniProt P04439, D140Y/D185E/D98H/E176V/E277Q/F33Y/G131W/G231S/I119V/I121R/I166T/I218V/L300P/L318F/N151K/N90K/P208A/P217A/Q86G/Q94H/R138H/R169H/T345S)
Measurement description: biochemical
Type: binding
pIC50: −log10 of the molar value. No end group written: not given here.
Rule: pIC50 of 6 or more gives Condition met; anything lower gives Condition not met.

Determine whether this sequence has pIC50 no lower than 6: FLSHVKIPV [Peptide 1578.55]
Condition met

Record ILIGVLVGVAL [Peptide 9013.0347] ; criterion: pIC50 no lower than 6. Met?
Condition met

Hi team, for RTLQQLLFI [Peptide 1525.11] , is the recorded pIC50 at or above 6?
Condition met
